Every entry's value here was drawn from the supplement of paper PMC9170038.

Tested on: MS2 coat protein
Assay: apparent KD of MS2 coat protein; designed switch direction (-1 OFF switch, 1 ON switch): -1; higher = weaker reporter binding
Conditions: Eterna round: R95; input ligand: microRNA oligo, concentration not stated
# key: entry, value: apparent KD of MS2 coat protein
The figure you give is taken to be in nM; do not add the unit.

Examples with their reported apparent KD of MS2 coat protein follow.
Suppose we examine the sequence GAUAGAGAGCAGGAUAUCUUAGAAAUGUAUUAUAGAGAAGGGCUCACAUGAGGAUCACCCAUGUGGUCCUAGAU [JL Dibiri mod 15] (puzzle: Exclusion 6) ; what apparent KD of MS2 coat protein value has been reported?
16

Note, next up: ACAAGAAUUUUGCUCGUAAAGUAGAAACGCGAGAGCGAGACAUGAGGAUCACCCAUGUAAAGGCAGUAGGUGGAGAU [JR_SV3TOV2_Sub027] (puzzle: Sensor v3, turn-off variant 2)
50.9

New cases:
Suppose we examine the sequence GGUGGACAUGAGGAUCACCCAUGUGAGGAUAUCGGCUAUCUACUCGCUGACGGUUGCUCGAGAAGGCACAUUGU [Exclusion 1 V92] (puzzle: Exclusion 1) ; what apparent KD of MS2 coat protein value has been reported?
90.9

Note, next up: CACCCACAUGAGGAUCACCCAUGUGAGGAUAUGAUACUAUGUACUUCGGUACAUAGUAUCAGAAGGCACAGGUG [Ex1-3: 61] (puzzle: Exclusion 1)
30.3

Note, next up: UUUAAUUUUUUUUUUUUACAAGCUUUUUGCUCGUCUUAUACAUGAGGAUCACCCAUGUAGGUGGGAGAUAAAUUAUC [JMF 23] (puzzle: Sensor v3, turn-off variant 2)
392

Note, next up: UUGGUUAUCUAUGGAAGUAACAUGAGGAUCACCCAUGUAUGUCUUGUUUUUUGUUCGUCAUAGGCCUUUUGUUUGGA [JR_SV3TOV1_Sub023] (puzzle: Sensor v3, turn-off variant 1)
24.9

Note, next up: AGUAACAGAGGAUAUACUGUUUUAUGUGUUUGUUAUUUUGAACAUGAGGAUCACCCAUGUAGAAGGCUGAAUAA [JMF 92] (puzzle: Exclusion 2)
20

Note, next up: CCCAGGGCAGGAUAUAGAGGGCUAAACAUGAGGAUCACCCAUGUGACCUCGGAACAGUUGCUAGAAGGGCCAGAUU [Maedonxe] (puzzle: Exclusion 5)
17.7

Note, next up: CCGAAUAUGCAGGAUAUCGUAUCGGAAACGAUACGAGAAGGGCAAACAUGAGGAUCACCCAUGUUCCUUAACGG [Fiskers Ex 6 - 14] (puzzle: Exclusion 6)
15.8

Note, next up: GCGUAUGAGCAGGAUAUCCCGCGGGAAUCCAUAGGAGAAGGGCUCACAUGAGGAUCACCCAUGUGGUCCAGAAA [Isisan] (puzzle: Exclusion 6)
16.1

Note, next up: ACGUGAUAUCUGUCGGUGGACAUGAGGAUCACCCAUGUAAGCUUUUUGCUCGUCUUAUAACCCGGUGACAGACCUUC [Tixeed] (puzzle: Sensor v3, turn-off variant 1)
268
